- target under test: human A3AR (Homo sapiens)
- Construct: expressed in transfected cells
- test: LOPAC library primary screen: single concentration (10 μM) inhibition of 25 nM CA200645 binding, PHERAstar FS
So I've got a bunch of molecules here, and I need their % 25 nM CA200645 binding values.
Give bare numbers, in %.

Some entries whose results are on file:
[[record]]
molecule = "O=C(O)/C=C\\C(=O)O.O=[N+]([O-])c1ccc2nc(N3CCNCC3)ccc2c1 [Quipazine, 6-nitro-, maleate]"
readout_kind = "% 25 nM CA200645 binding"
unit_tag = "%"
measured = 100.0

[[record]]
molecule = "COC(=O)[C@H](NC(=O)c1cc(-c2ccccc2)nc2ccccc12)c1ccccc1 [SB 218795]"
readout_kind = "% 25 nM CA200645 binding"
unit_tag = "%"
measured = 51.1

[[record]]
molecule = "O=C(O)c1cccnc1Nc1cccc(C(F)(F)F)c1 [Niflumic acid]"
readout_kind = "% 25 nM CA200645 binding"
unit_tag = "%"
measured = 113.3

[[record]]
molecule = "CCCCCCCC/C=C\\CCCCCCCC(=O)NCCO [N-Oleoylethanolamine]"
readout_kind = "% 25 nM CA200645 binding"
unit_tag = "%"
measured = 98.2

[[record]]
molecule = "O=C(O)C1=CC(=C(c2ccc(O)c(C(=O)O)c2)c2ccc(O)c(C(=O)O)c2)C=CC1=O [Aurintricarboxylic acid]"
readout_kind = "% 25 nM CA200645 binding"
unit_tag = "%"
measured = 93.7


I have 5 molecules here; please give me % 25 nM CA200645 binding for each one.
1. COc1cc(SC)ccc1C(=O)N1CCC(Cc2ccccc2)CC1 [JX401]
2. C[C@H](O)[C@H](O)[C@H]1CNc2nc(N)[nH]c(=O)c2N1.Cl
3. NC(N)=Nc1ccc2[nH]c3c(c2c1)C[C@@]1(O)[C@H]2Cc4ccc(O)c5c4[C@@]1(CCN2CC1CC1)[C@H]3O5.O=C(O)C(F)(F)F.O=C(O)C(F)(F)F
4. Brc1ccc([C@H]2CN3CCSC3=N2)cc1.O=C(O)C(=O)O [S(-)-p-Bromotetramisole oxalate]
5. O=P(O)(O)C(Cl)(Cl)P(=O)(O)O [Clodronic acid]

-- reply
84.6
101.6
93.9
68.6
98.4

* * *

- target under test: human A3AR (Homo sapiens, UniProt P0DMS8)
- Construct: expressed in transfected cells
- test: LOPAC library primary screen: single concentration (10 μM) inhibition of 25 nM CA200645 binding, PHERAstar FS
So I've got a bunch of molecules here, and I need their % 25 nM CA200645 binding values.
One number for each entry, in %.

I have 5 molecules here; please give me % 25 nM CA200645 binding for each one.
1. CN1C[C@H](CNC(=O)OCc2ccccc2)C[C@@H]2c3cccc4c3c(cn4C)C[C@H]21 [Metergoline]
2. CC(C)c1cccc(C(C)C)c1O [Propofol]
3. CCc1cccc(N(C)C(N)=Nc2cccc3ccccc23)c1 [CNS-1102]
4. O=C(Nc1ccncc1)c1cc([N+](=O)[O-])ccc1Cl [T0070907]
5. Cn1c(=O)c2c(nc(C=Cc3cccc(Cl)c3)n2C)n(C)c1=O [8-(3-Chlorostyryl)caffeine]

-- reply
94.1
96.0
102.3
110.9
79.6

* * *

- target under test: human A3AR (Homo sapiens, UniProt P0DMS8)
- Construct: expressed in transfected cells
- test: LOPAC library primary screen: single concentration (10 μM) inhibition of 25 nM CA200645 binding, PHERAstar FS
readout kind: % 25 nM CA200645 binding (%)
Answers are plain numbers, in %.

I have 3 compounds here; please give me % 25 nM CA200645 binding for each one.
1. O=C(O)C(O)C(O)C(=O)O.c1cnc2cc3c(cc2n1)[C@@H]1CNC[C@H]3C1 [Varenicline tartrate]
2. C[C@H]1CCC/C=C/[C@@H]2C[C@H](O)C[C@H]2[C@H](O)/C=C/C(=O)O1
3. CC[N+](C)(C)c1cccc(O)c1 [Edrophonium chloride]

-- reply
[90.5, 87.5, 88.1]

* * *

So I've got a bunch of compounds here, and I need their % 25 nM CA200645 binding values.
- target under test: human A3AR (Homo sapiens)
- Construct: expressed in transfected cells
- Sequence (P0DMS8 1-318): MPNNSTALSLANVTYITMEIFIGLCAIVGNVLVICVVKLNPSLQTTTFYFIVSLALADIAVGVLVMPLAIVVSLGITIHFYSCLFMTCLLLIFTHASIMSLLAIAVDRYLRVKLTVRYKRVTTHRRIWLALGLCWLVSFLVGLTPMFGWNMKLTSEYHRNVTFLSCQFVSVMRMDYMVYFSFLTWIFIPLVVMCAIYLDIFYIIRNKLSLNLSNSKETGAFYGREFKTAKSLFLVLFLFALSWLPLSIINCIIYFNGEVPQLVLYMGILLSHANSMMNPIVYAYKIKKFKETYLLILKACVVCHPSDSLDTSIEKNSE
- test: LOPAC library primary screen: single concentration (10 μM) inhibition of 25 nM CA200645 binding, PHERAstar FS
Where a name gives a salt, the structure may show the parent alone.
Numbers only, in %.

I have 7 compounds here; please give me % 25 nM CA200645 binding for each one.
1. Br.C=CCN1CCc2c(cc(O)c(O)c2Br)[C@@H](c2ccccc2)C1 [R(+)-6-Bromo-APB hydrobromide]
2. NC(=O)OCC(COC(N)=O)c1ccccc1 [Felbamate]
3. O=C(N[C@@H](Cc1ccccc1)C(=O)CCl)OCc1ccccc1
4. CCCC(C(=O)OCCN(CC)CC)(c1ccccc1)c1ccccc1.Cl [SKF-525A hydrochloride]
5. c1ccc2c(CC3=NCCN3)cccc2c1 [Naphazoline hydrochloride]
6. Cc1nnc(SCC2=C(C(=O)O)N3C(=O)[C@@H](NC(=O)Cn4cnnn4)[C@H]3SC2)s1 [Cefazolin sodium]
7. NC1CCN(O)C1=O (racemic) [(±)-HA-966]

-- reply
1: 77.8; 2: 98.7; 3: 100.8; 4: 95.3; 5: 105.3; 6: 96.3; 7: 96.6

* * *

- target under test: human A3AR (Homo sapiens, UniProt P0DMS8)
- Construct: expressed in transfected cells
- Sequence (P0DMS8 1-318): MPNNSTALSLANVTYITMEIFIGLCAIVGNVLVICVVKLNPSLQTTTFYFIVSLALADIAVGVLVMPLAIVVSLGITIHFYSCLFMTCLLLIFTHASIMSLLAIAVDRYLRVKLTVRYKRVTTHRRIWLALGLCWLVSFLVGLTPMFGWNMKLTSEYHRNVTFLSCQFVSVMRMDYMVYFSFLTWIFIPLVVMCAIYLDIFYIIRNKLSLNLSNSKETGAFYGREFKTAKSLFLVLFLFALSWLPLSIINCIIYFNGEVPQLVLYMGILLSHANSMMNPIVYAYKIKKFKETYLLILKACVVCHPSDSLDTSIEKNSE
- test: LOPAC library primary screen: single concentration (10 μM) inhibition of 25 nM CA200645 binding, PHERAstar FS
So I've got a bunch of molecules here, and I need their % 25 nM CA200645 binding values.
Answers are plain numbers, in %.

[[record]]
molecule = "NC(=O)N1c2ccccc2C=Cc2ccccc21 [Carbamazepine]"
measured = 89.8

[[record]]
molecule = "CC(=O)N[C@@H](CS)C(=O)O"
measured = 100.3

[[record]]
molecule = "N.N.O=C([O-])C1(C(=O)[O-])CCC1.[Pt+2]"
measured = 97.7


I have 3 molecules here; please give me % 25 nM CA200645 binding for each one.
1. Cc1ccc(S(=O)(=O)O)cc1.NC[C@H]1O[C@@H](n2cnc3c(N)ncnc32)[C@H](O)[C@@H]1O
2. O=C(c1ccc2c(c1)OCCO2)N1CCCCC1
3. COc1ccc2c(c1O)-c1cccc3c1[C@@H](C2)N(C)CC3.Cl [R(-)-Apocodeine hydrochloride]

-- reply
85.5
95.5
70.5

* * *

- target under test: human A3AR (Homo sapiens)
- Construct: expressed in transfected cells
- test: LOPAC library primary screen: single concentration (10 μM) inhibition of 25 nM CA200645 binding, PHERAstar FS
readout kind: % 25 nM CA200645 binding (%)
Answers are plain numbers, in %.

I have 2 compounds here; please give me % 25 nM CA200645 binding for each one.
1. CC(C)(C)c1onc(OCP(=O)(O)O)c1CC(N)C(=O)O (stereo not drawn)
2. N#C/C(=C\c1ccc(O)c(O)c1)C(=O)Nc1ccccc1

-- reply
1: 98.4; 2: 91.5

I have 6 compounds here; please give me % 25 nM CA200645 binding for each one.
1. Oc1c2ccccc2c2c3c(cccc13)N=N2
2. COc1ccc(CCn2nnnc2C2(c3ccc(C)cc3)CC2)cc1
3. N=C(N)NC(CCC(=O)O)C(=O)O (stereo not drawn)
4. CC(C)NCC(O)c1ccc(O)c(O)c1.Cl (single isomer, unassigned; (-)) [(-)-Isoproterenol hydrochloride]
5. Cc1ccc(O)c(N=Nc2ccccc2)n1
6. CC(=O)c1c(O)c(C)c(O)c(Cc2c(O)c3c(c(C(=O)/C=C/c4ccccc4)c2O)OC(C)(C)C=C3)c1O [rottlerin, reference compound]

-- reply
1: 41.0; 2: 66.4; 3: 76.4; 4: 98.6; 5: 98.5; 6: 22.8

I have 5 compounds here; please give me % 25 nM CA200645 binding for each one.
1. CN1CCc2cccc(Cl)c2CC1
2. COc1cc(OC)c(C=C2C(O)=Nc3ccccc32)c(OC)c1
3. CCCn1c(=O)c(C)cn2nc(N)nc12
4. C[C@]12C=CC(=O)C=C1CC[C@H]1[C@@H]3C[C@@H](O)[C@](O)(C(=O)CO)[C@@]3(C)C[C@H](O)[C@@]12F
5. COc1nc(C)nc(Cl)c1NC1=NCCN1.Cl [Moxonidine hydrochloride]

-- reply
103.0
88.8
93.4
95.9
99.1

I have 4 compounds here; please give me % 25 nM CA200645 binding for each one.
1. COC(=O)[C@H]1[C@H]2C[C@@H]3c4[nH]c5cc(OC)ccc5c4CCN3C[C@H]2C[C@@H](OC(=O)c2cc(OC)c(OC)c(OC)c2)[C@@H]1OC
2. CCOC(=O)C1=C(C)NC(C)=C(C(=O)OC)C1c1cccc(Cl)c1Cl (stereo not drawn)
3. CC(=O)NCCc1c[nH]c2ccc(O)cc12 [N-Acetyl-5-hydroxytryptamine]
4. Cn1c(=O)c2c(ncn2C)n(C)c1=O [caffeine, reference compound]

-- reply
1: 83.8; 2: 79.1; 3: 100.5; 4: 95.8
